Numbers sourced from patent US20260242735A1.

target: human CD33 N100A (human, UniProt P20138 18-364); experiment: flow cytometry on HEK293-T, alanine scan
Sequence (P20138 18-364 N100A limits assumed): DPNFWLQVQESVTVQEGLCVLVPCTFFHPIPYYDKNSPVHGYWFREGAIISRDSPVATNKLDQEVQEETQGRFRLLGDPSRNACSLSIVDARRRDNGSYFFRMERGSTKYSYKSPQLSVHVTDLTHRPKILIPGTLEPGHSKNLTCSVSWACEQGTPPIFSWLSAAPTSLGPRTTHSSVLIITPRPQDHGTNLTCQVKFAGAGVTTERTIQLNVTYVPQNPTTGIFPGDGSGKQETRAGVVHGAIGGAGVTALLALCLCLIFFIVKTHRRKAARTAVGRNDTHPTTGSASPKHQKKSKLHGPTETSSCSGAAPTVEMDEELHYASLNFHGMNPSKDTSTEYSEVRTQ
parameter: Mean % WT Binding (% WT binding)
One number for each entry, in % WT binding.

Reference set (3 entries):
binder	units.text	observed.measurement
Refmab #3 (antibody, V domains shown, The alanine scan used IgG or Fab) VH: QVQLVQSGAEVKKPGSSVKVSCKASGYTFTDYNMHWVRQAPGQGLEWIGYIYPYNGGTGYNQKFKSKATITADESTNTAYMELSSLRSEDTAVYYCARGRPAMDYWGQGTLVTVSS VL: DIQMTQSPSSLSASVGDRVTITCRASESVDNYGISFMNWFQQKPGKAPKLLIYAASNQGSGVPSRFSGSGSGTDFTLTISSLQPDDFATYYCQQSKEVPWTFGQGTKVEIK	% WT binding	107
Refmab #4 (antibody, V domains shown, The alanine scan used IgG or Fab) VH: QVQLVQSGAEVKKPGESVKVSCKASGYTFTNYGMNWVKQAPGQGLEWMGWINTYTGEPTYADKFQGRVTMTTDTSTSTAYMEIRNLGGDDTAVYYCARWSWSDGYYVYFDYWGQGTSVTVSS VL: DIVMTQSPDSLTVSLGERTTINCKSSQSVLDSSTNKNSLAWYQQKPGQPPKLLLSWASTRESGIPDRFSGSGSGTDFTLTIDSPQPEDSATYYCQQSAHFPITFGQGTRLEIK	% WT binding	123
Refmab #1 (antibody, V domains shown, The alanine scan used IgG or Fab; also called hP67.6) VH: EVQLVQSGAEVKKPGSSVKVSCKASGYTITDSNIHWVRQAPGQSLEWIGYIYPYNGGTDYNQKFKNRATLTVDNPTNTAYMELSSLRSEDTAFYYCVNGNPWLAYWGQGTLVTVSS VL: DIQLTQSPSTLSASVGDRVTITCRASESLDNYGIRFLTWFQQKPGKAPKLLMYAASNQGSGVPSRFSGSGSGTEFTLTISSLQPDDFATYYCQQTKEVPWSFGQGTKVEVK	% WT binding	94.8

Proceed to the following item.
Query Refmab #2 (antibody, V domains shown, The alanine scan used IgG or Fab) VH: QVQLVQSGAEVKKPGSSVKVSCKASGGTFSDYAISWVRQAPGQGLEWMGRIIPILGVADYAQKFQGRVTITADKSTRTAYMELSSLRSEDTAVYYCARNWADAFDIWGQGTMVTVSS VL: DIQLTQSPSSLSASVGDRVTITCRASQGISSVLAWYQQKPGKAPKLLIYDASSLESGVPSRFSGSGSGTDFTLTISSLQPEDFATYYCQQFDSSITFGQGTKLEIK yields Mean % WT Binding of 97
